Provide the reported IC50 of each item.
Test system: A549 cells
test method notes: Cell viability assay (CCK-8), A549
Format: cell-based
conditions used: Homo sapiens, A549, 48 h, read-out: Antiproliferation activity (pIC50 ± SEM) A549 (converted)

[
  {
    "compound": "C[C@H]1COC2=C1C(=O)C(=O)c1c2ccc2c1CCCC2(C)C",
    "tgt": "A549 cells",
    "assay metric": "IC50",
    "observed value": "3.16 µM"
  },
  {
    "compound": "COc1ccc2cc3[n+](cc2c1OC)CCc1cc2c(cc1-3)OCO2 [compound 17, Berberine chloride]",
    "tgt": "A549 cells",
    "assay metric": "IC50",
    "observed value": "> 10 µM"
  },
  {
    "compound": "COc1ccc(C(C)=O)c(O)c1",
    "tgt": "A549 cells",
    "assay metric": "IC50",
    "observed value": "> 10 µM"
  }
]

Shifting focus to the compound that follows.
**Query** Endpoint output: IC50 of `O=c1cc(-c2ccc(O)cc2)oc2cc(O)cc(O)c12` . Value?
**Result** > 10 µM

* * *

Provide the reported activity of each item.
tgt: human MAGL (Homo sapiens, UniProt Q99685)
Construct: expressed in transfected cells; host or cells: HEK293T (transient transfection; membrane fraction)
Sequence (Q99685 whole entry): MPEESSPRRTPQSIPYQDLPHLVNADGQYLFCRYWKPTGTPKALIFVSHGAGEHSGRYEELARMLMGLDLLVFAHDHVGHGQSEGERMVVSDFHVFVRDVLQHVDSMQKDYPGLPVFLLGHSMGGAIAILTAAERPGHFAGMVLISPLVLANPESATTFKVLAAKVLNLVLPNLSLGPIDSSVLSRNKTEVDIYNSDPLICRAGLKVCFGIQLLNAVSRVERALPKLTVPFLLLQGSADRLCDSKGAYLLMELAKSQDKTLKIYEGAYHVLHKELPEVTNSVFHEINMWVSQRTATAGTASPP
test method notes: MAGL activity assay (AA-HNA fluorogenic substrate)
Format: biochemical
conditions used: 100 µM, AA-HNA substrate assay, Supplementary Table 1; read-out: MAGL Inhibition (%)
Structures can show the parent of a compound that is named as a salt.
Answers are plain numbers, in %.

Answered examples (8):
[
  {
    "compound": "CC(=O)c1c(O)c(C)c(O)c2c1OC1=CC(=O)C(C(C)=O)C(=O)C12C [compound 3, D-Usnic Acid]",
    "activity / %": 85.6
  },
  {
    "compound": "C[C@H](CCC(=O)O)[C@H]1CC[C@H]2[C@@H]3C[C@H](O)[C@@H]4C[C@H](O)CC[C@]4(C)[C@H]3CC[C@]12C [compound 40, Hyodeoxycholic]",
    "activity / %": 97
  },
  {
    "compound": "COc1ccc([C@@H]2CC(=O)c3c(O)cc(O[C@@H]4O[C@H](CO[C@@H]5O[C@@H](C)[C@H](O)[C@@H](O)[C@H]5O)[C@@H](O)[C@H](O)[C@H]4O)cc3O2)cc1O [compound 38, Hesperidin]",
    "activity / %": 91.4
  },
  {
    "compound": "OCc1c[nH]c2ccccc12 [compound 42, Ndole-3-carbinol]",
    "activity / %": 70.6
  },
  {
    "compound": "O=C1CCC[C@@H]2[C@H]3CCCN4CCC[C@@H](CN12)[C@@H]34 [compound 49, (+)-Matrine]",
    "activity / %": 85.4
  },
  {
    "compound": "C=C1C(=O)O[C@H]2[C@H]1CC/C(C)=C/CC[C@@]1(C)O[C@@H]21 [compound 65, (-)-Parthenolide]",
    "activity / %": 87.5
  },
  {
    "compound": "O=c1c(O)c(-c2ccc(O)cc2O)oc2cc(O)cc(O)c12 [compound 51, Morin hydrate]",
    "activity / %": 49.4
  },
  {
    "compound": "O=C(CCc1ccc(O)cc1)c1c(O)cc(O)cc1O [compound 66, Dihydronaringenin]",
    "activity / %": 41.3
  }
]

Please report activity for every entry that follows.
1. COc1ccc([C@@H]2CC(=O)c3c(O)cc(O[C@@H]4O[C@H](CO)[C@@H](O)[C@H](O)[C@H]4O[C@@H]4O[C@@H](C)[C@H](O)[C@@H](O)[C@H]4O)cc3O2)cc1O [compound 57, Neohesperidin]
2. Cl.N=c1ccn2c(n1)O[C@H]1[C@H](O)[C@@H](CO)O[C@H]12 [compound 1, Cyclocytidine HCl]
3. C[N+](C)(C)CC(O)CC(=O)O (racemic) [compound 27, DL-Carnitine HCl]
4. COc1cc(/C=C/C(=O)O)ccc1O [compound 32, Ferulic Acid]

**Result**
1. 86.8
2. 31.7
3. 97.6
4. 104

Please report activity for every entry that follows.
1. C[C@@H]1O[C@@H](O)[C@H](O)[C@H](O)[C@H]1O [compound 45, L-(+)-Rhamnose Monohydrate]
2. O=C(O)/C=C/c1ccc(O)c(O)c1 [compound 19, Caffeic Acid]

**Result**
1. 81.1
2. 90.1

* * *

tgt: human ABHD6 (Homo sapiens, UniProt Q9BV23)
Construct: expressed in transfected cells; host or cells: HEK293T (transient transfection; membrane fraction)
test method notes: ABHD6 activity assay (AA-HNA fluorogenic substrate)
Assay type: biochemical
conditions used: 100 µM, AA-HNA substrate assay, Supplementary Table 2; read-out: ABHD6 Inhibition (%)
assay metric: activity at 100 µM (%)
Give bare numbers, in %.

Answered examples (2):
[
  {
    "molecule": "CC1(C)[C@@H](O)CC[C@]2(C)[C@H]3C(=O)C=C4[C@@H]5C[C@@](C)(C(=O)O)CC[C@]5(C)CC[C@@]4(C)[C@]3(C)CC[C@@H]12 [compound 30, Enoxolone]",
    "activity at 100 µM [%]": 92
  },
  {
    "molecule": "O=c1c(O)c(-c2ccc(O)c(O)c2)oc2cc(O)ccc12 [compound 29, Fisetin]",
    "activity at 100 µM [%]": 82.4
  }
]

Shifting focus to the molecule that follows.
**Query** Endpoint output: activity at 100 µM of O=c1cc(-c2ccccc2)oc2cc(O)cc(O)c12 [compound 22, Chrysin] . Value?
**Result** 105

* * *

Provide the reported activity of each item.
tgt: human ABHD12 (Homo sapiens)
Construct: expressed in transfected cells; host or cells: HEK293T (transient transfection; membrane fraction)
Sequence (Q8N2K0 whole entry): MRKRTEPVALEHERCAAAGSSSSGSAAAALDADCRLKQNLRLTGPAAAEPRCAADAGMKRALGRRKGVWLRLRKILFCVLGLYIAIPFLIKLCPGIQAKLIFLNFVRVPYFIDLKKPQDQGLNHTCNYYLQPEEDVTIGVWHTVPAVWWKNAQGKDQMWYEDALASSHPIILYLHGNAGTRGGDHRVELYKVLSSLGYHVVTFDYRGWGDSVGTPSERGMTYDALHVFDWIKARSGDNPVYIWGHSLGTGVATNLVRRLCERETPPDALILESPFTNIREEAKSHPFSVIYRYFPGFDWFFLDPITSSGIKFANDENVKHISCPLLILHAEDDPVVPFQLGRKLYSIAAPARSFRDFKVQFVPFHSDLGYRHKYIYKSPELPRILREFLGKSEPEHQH
test method notes: ABHD12 activity by competitive ABPP with FP-TAMRA
Format: biochemical
conditions used: 100 µM compound; competitive ABPP with probe FP-TAMRA (250 nM); read-out: ABHD12 Inhibition (%)
Answers are plain numbers, in %.

[
  {
    "molecule": "C[C@@H]1O[C@@H](O)[C@H](O)[C@H](O)[C@H]1O [compound 45, L-(+)-Rhamnose Monohydrate]",
    "activity (%)": 80.6
  }
]

Please report activity for every entry that follows.
1. Cl.N=c1ccn2c(n1)O[C@H]1[C@H](O)[C@@H](CO)O[C@H]12 [compound 1, Cyclocytidine HCl]
2. C[C@H](CCC(=O)O)[C@H]1CC[C@H]2[C@@H]3C[C@H](O)[C@@H]4C[C@H](O)CC[C@]4(C)[C@H]3CC[C@]12C
3. COc1cc(/C=C/C(=O)O)ccc1O

**Result**
[70.1, 70.8, 80.8]

**Query** Endpoint output: activity of CC(=O)c1c(O)c(C)c(O)c2c1OC1=CC(=O)C(C(C)=O)C(=O)C12C (centres unmarked) . Value?
**Result** 68.8

* * *

tgt: human MAGL (Homo sapiens)
Construct: expressed in transfected cells; host or cells: HEK293T (transient transfection; membrane fraction)
test method notes: MAGL activity assay (AA-HNA fluorogenic substrate)
Type: biochemical
conditions used: 100 µM, AA-HNA substrate assay, Supplementary Table 1; read-out: MAGL Inhibition (%)
assay metric: activity at 100 µM (%)
Answers are plain numbers, in %.

Please report activity at 100 µM for every entry that follows.
1. O=C(O)CCCc1c[nH]c2ccccc12
2. C=CCc1ccc(O)c(-c2cc(CC=C)ccc2O)c1
3. COc1ccc([C@@H]2CC(=O)c3c(O)cc(O)cc3O2)cc1O
4. c1coc(CNc2ncnc3[nH]cnc23)c1

**Result**
85.4
72.2
90.9
90.5

Please report activity at 100 µM for every entry that follows.
1. O=c1c(-c2ccc(O)cc2)coc2c([C@@H]3O[C@H](CO)[C@@H](O)[C@H](O)[C@H]3O)c(O)ccc12
2. O=c1c(O)c(-c2ccc(O)c(O)c2)oc2cc(O)ccc12
3. O=C(/C=C/C=C/c1ccc2c(c1)OCO2)N1CCCCC1
4. C[C@@H]1O[C@@H](O[C@H]2[C@H](Oc3cc(O)c4c(c3)O[C@H](c3ccc(O)cc3)CC4=O)O[C@H](CO)[C@@H](O)[C@@H]2O)[C@H](O)[C@H](O)[C@H]1O
5. COc1ccc2cc3[n+](cc2c1OC)CCc1cc2c(cc1-3)OCO2 [compound 17, Berberine chloride]

**Result**
1. 94.8
2. 76.2
3. 99.7
4. 104
5. 82.8

* * *

tgt: human ABHD6 (Homo sapiens, UniProt Q9BV23)
Construct: expressed in transfected cells; host or cells: HEK293T (transient transfection; membrane fraction)
Sequence (Q9BV23 1-337): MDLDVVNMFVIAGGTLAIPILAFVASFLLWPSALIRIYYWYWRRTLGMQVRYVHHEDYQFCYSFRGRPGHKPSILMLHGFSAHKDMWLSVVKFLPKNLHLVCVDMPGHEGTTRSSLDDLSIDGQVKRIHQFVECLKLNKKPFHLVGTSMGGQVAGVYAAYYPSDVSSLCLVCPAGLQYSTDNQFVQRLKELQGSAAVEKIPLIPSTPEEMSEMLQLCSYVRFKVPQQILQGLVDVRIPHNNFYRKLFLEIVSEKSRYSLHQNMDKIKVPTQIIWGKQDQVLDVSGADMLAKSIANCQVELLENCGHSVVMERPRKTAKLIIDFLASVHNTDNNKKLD
test method notes: ABHD6 activity assay (AA-HNA fluorogenic substrate)
Assay type: biochemical
conditions used: 100 µM, AA-HNA substrate assay, Supplementary Table 2; read-out: ABHD6 Inhibition (%)
Provide the reported activity of each item.
Answers are plain numbers, in %.

Answered examples (7):
[
  {
    "compound": "O=C(CCc1ccc(O)cc1)c1c(O)cc(O)cc1O [compound 66, Dihydronaringenin]",
    "tgt": "human ABHD6 (Homo sapiens, UniProt Q9BV23)",
    "display unit": "%",
    "activity": 115
  },
  {
    "compound": "COc1ccc([C@@H]2CC(=O)c3c(O)cc(O[C@@H]4O[C@H](CO[C@@H]5O[C@@H](C)[C@H](O)[C@@H](O)[C@H]5O)[C@@H](O)[C@H](O)[C@H]4O)cc3O2)cc1O",
    "tgt": "human ABHD6 (Homo sapiens, UniProt Q9BV23)",
    "display unit": "%",
    "activity": 94.3
  },
  {
    "compound": "OCc1c[nH]c2ccccc12",
    "tgt": "human ABHD6 (Homo sapiens, UniProt Q9BV23)",
    "display unit": "%",
    "activity": 101
  },
  {
    "compound": "C[C@@H]1O[C@@H](O)[C@H](O)[C@H](O)[C@H]1O [compound 45, L-(+)-Rhamnose Monohydrate]",
    "tgt": "human ABHD6 (Homo sapiens, UniProt Q9BV23)",
    "display unit": "%",
    "activity": 98.8
  },
  {
    "compound": "O=C(O)/C=C/c1ccc(O)c(O)c1",
    "tgt": "human ABHD6 (Homo sapiens, UniProt Q9BV23)",
    "display unit": "%",
    "activity": 108
  },
  {
    "compound": "COc1cc(/C=C/C(=O)O)ccc1O",
    "tgt": "human ABHD6 (Homo sapiens, UniProt Q9BV23)",
    "display unit": "%",
    "activity": 92.4
  },
  {
    "compound": "O=c1c(O)c(-c2ccc(O)cc2O)oc2cc(O)cc(O)c12 [compound 51, Morin hydrate]",
    "tgt": "human ABHD6 (Homo sapiens, UniProt Q9BV23)",
    "display unit": "%",
    "activity": 99.4
  }
]

Shifting focus to the compound that follows.
**Query** Endpoint output: activity of `C[C@H](CCC(=O)O)[C@H]1CC[C@H]2[C@@H]3C[C@H](O)[C@@H]4C[C@H](O)CC[C@]4(C)[C@H]3CC[C@]12C` . Value?
**Result** 95.4
